system: Plasmodium falciparum; assay: Antimalarial activity against multidrug-resistant Plasmodium falciparum K1 by microculture radioisotope assay; type: functional, organism-based
measuredProperty: pIC50
Quick note: pIC50 values are minus log10 of concentrations in mol/L.

Entry "C=C1c2ccoc2C[C@H]2[C@H]1[C@@H](OC(C)=O)[C@H](O)[C@@]1(O)C(C)(C)CCC(=O)[C@]21C" , tested on Plasmodium falciparum, has a reported pIC50 of 5.24

Entry "C=C1c2ccoc2C[C@H]2[C@H]1[C@@H](O)[C@H](OC(C)=O)[C@@]1(O)C(C)(C)CC[C@H](OC(C)=O)[C@]21C" , tested on Plasmodium falciparum, has a reported pIC50 of 5.42

Entry "COC(=O)[C@@H]1c2ccoc2C[C@H]2[C@H]1[C@@H](OC(C)=O)[C@H](O)[C@@]1(O)C(C)(C)CCC(=O)[C@]21C" , tested on Plasmodium falciparum, has a reported pIC50 of 5.80

Entry "C[C@H]1[C@@H](O)O[C@@H]2O[C@@]3(C)CC[C@H]4[C@H](C)CC[C@@H]1[C@@]24OO3" , tested on Plasmodium falciparum, has a reported pIC50 of 8.40
